Reported values of chemical recovery by SPE of plasma for individual entries
# measurement description: chemical recovery by SPE of plasma after PDMS sampling; higher = better extraction;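 note: over 400 spiked chemicals quantified by LC-HRMS or GC-HRMS via internal standard calibration, recovery relative to spike mix added to unspiked plasma extract to correct matrix effects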
# conditions used: pooled human plasma; extraction method: HLB SPE of plasma after PES; equilibration time (d): 6
reported metric: chemical recovery by SPE of plasma (%)

> print(dat)
                                    molecule                     reported.metric    val
 1     O=P(OC(CCl)CCl)(OC(CCl)CCl)OC(CCl)CCl  chemical recovery by SPE of plasma   2.14
 2                    O=c1[nH]nc(C(F)(F)F)s1  chemical recovery by SPE of plasma   41.5
 3               Cc1cccc(Nc2ccccc2C(=O)O)c1C  chemical recovery by SPE of plasma   14.5
 4  CC(C)C(=O)Nc1ccc([N+](=O)[O-])c(C(F)(F)F)c1 [Flutamide]  chemical recovery by SPE of plasma   15.5
 5          CCN(CC)c1nc(C)cc(OP(=S)(OC)OC)n1  chemical recovery by SPE of plasma  0.275
 6  Fc1ccc([C@]2(Cn3cncn3)O[C@H]2c2ccccc2Cl)cc1 (racemic)  chemical recovery by SPE of plasma  0.285
 7                  CC(C)N(C(=O)CCl)c1ccccc1  chemical recovery by SPE of plasma   1.58
 8                CC(=O)Nc1ccc(O)c(C(=O)O)c1  chemical recovery by SPE of plasma   55.1
 9      CCCN(CCOc1c(Cl)cc(Cl)cc1Cl)C(=O)NC=O  chemical recovery by SPE of plasma  0.703
10  N#Cc1nn(-c2c(Cl)cc(C(F)(F)F)cc2Cl)c(N)c1[S+]([O-])C(F)(F)F (stereo unspecified)  chemical recovery by SPE of plasma   15.4
11                                Cc1ccccc1N  chemical recovery by SPE of plasma    1.2
12  CCC(C)OC(=O)N1CCCCC1CCO (stereo unspecified)  chemical recovery by SPE of plasma   1.58
13                   NC(=O)Nc1ccc(Cl)c(Cl)c1  chemical recovery by SPE of plasma   36.5
14  CO/C=C(/C(=O)O)c1ccccc1Oc1cc(Oc2ccccc2C#N)ncn1  chemical recovery by SPE of plasma   45.9
15  CCCOc1nn(C(=O)NS(=O)(=O)c2ccccc2C(=O)OC)c(=O)n1C  chemical recovery by SPE of plasma   29.4
16           ClC=C(c1ccc(Cl)cc1)c1ccc(Cl)cc1  chemical recovery by SPE of plasma   11.5
17  CCCc1nc(C)c2c(=O)nc(-c3cc(S(=O)(=O)N4CCN(CC)CC4)ccc3OCC)[nH]n12  chemical recovery by SPE of plasma   4.01
18                      CCNc1nc(NCC)nc(SC)n1  chemical recovery by SPE of plasma   3.34
19  COc1ccccc1Oc1c(NS(=O)(=O)c2ccc(C(C)(C)C)cc2)nc(-c2ncccn2)nc1OCCO  chemical recovery by SPE of plasma   42.2
20                 O=c1c2ccccc2[nH]c2ccccc12  chemical recovery by SPE of plasma   44.9
21  CCCCCCCCCCCC(=O)N(CCO)CCO [Lauryl diethanolamide]  chemical recovery by SPE of plasma   13.2
